- study.target: DNA topoisomerase 2-alpha (Homo sapiens, UniProt P11388)
- Sequence (P11388 whole entry): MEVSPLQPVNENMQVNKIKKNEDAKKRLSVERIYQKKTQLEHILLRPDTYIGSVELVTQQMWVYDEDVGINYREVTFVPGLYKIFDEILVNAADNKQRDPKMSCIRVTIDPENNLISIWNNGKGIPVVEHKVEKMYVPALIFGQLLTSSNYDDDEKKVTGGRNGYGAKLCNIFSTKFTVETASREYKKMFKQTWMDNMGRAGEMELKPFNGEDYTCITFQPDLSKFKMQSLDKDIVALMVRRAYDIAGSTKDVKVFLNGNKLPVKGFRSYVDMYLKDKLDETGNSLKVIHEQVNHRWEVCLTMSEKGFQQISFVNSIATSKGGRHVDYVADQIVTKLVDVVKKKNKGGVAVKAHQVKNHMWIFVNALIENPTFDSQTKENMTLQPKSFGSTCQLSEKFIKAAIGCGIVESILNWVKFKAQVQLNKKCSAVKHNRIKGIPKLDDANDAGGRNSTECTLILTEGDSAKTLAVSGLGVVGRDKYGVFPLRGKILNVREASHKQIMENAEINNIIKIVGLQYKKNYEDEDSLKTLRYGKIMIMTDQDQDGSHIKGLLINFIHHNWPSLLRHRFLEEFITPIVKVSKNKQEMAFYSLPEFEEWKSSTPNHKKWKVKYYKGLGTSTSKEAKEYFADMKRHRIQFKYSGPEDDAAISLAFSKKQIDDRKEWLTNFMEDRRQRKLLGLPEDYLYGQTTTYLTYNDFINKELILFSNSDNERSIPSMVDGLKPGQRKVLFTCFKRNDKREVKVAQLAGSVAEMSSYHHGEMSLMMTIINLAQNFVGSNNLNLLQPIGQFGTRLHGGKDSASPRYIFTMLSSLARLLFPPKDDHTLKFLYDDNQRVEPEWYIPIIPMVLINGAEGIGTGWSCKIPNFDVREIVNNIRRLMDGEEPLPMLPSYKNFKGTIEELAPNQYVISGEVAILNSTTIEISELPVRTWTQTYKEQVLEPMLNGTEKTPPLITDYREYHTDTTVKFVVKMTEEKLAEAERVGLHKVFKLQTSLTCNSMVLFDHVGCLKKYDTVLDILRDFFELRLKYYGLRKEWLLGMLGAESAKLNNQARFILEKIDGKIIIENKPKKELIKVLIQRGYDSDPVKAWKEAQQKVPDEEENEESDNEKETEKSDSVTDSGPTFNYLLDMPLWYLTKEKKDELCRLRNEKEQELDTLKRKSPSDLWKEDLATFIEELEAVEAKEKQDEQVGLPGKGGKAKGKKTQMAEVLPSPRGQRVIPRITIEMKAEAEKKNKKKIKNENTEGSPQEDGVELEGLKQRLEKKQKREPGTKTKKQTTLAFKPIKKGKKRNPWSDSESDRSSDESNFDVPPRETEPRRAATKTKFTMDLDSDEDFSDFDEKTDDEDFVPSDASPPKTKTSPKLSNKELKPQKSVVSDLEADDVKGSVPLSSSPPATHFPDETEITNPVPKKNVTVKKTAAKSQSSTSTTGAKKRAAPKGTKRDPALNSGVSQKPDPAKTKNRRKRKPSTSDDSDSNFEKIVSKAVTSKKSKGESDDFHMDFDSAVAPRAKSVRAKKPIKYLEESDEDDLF
- assay.explanation: Inhibition of human DNA topoisomerase-2alpha assessed as relaxation of supercoiled pBR322 DNA at 20 uM after 30 mins by agarose gel electrophoresis relative to control
observable: inhibition (%)
Please reply with the bare figure in % and do not write the unit itself.

Ask: Write down the reported inhibition (system: DNA topoisomerase 2-alpha (Homo sapiens, UniProt P11388)) of CCCCNCC(O)COc1cc(O)c2c(=O)c3ccccc3oc2c1 (stereo not drawn)
Reply: 67.7

Ask: Write down the reported inhibition (system: DNA topoisomerase 2-alpha (Homo sapiens, UniProt P11388)) of CCCCCCNCC(O)COc1cc(O)c2c(=O)c3ccccc3oc2c1 (stereo not drawn)
Reply: 43.6

Ask: Write down the reported inhibition (system: DNA topoisomerase 2-alpha (Homo sapiens, UniProt P11388)) of CCCCNCC(O)COc1cc(O)c2c(=O)c3cccc(OC)c3oc2c1 (stereo not drawn)
Reply: 68.1

Ask: Write down the reported inhibition (system: DNA topoisomerase 2-alpha (Homo sapiens, UniProt P11388)) of CCCCCNCC(O)COc1cc(O)c2c(=O)c3cccc(OC)c3oc2c1 (stereo not drawn)
Reply: 62.6

Ask: Write down the reported inhibition (system: DNA topoisomerase 2-alpha (Homo sapiens, UniProt P11388)) of CCCCCCNCC(O)COc1cc(O)c2c(=O)c3cccc(OC)c3oc2c1 (stereo not drawn)
Reply: 61.2

Ask: Write down the reported inhibition (system: DNA topoisomerase 2-alpha (Homo sapiens, UniProt P11388)) of CCCNCC(O)COc1cc(O)c2c(=O)c3ccccc3oc2c1 (stereo not drawn)
Reply: 60.2

Ask: Write down the reported inhibition (system: DNA topoisomerase 2-alpha (Homo sapiens, UniProt P11388)) of CCCCCNCC(O)COc1cc(O)c2c(=O)c3ccccc3oc2c1 (stereo not drawn)
Reply: 52.1

Ask: Write down the reported inhibition (system: DNA topoisomerase 2-alpha (Homo sapiens, UniProt P11388)) of CCCNCC(O)COc1cc(O)c2c(=O)c3cccc(OC)c3oc2c1 (stereo not drawn)
Reply: 64.4
